- system_name: T1, mouse SPNS2 (mouse, UniProt Q91VM4 1-549)
- T1 sequence: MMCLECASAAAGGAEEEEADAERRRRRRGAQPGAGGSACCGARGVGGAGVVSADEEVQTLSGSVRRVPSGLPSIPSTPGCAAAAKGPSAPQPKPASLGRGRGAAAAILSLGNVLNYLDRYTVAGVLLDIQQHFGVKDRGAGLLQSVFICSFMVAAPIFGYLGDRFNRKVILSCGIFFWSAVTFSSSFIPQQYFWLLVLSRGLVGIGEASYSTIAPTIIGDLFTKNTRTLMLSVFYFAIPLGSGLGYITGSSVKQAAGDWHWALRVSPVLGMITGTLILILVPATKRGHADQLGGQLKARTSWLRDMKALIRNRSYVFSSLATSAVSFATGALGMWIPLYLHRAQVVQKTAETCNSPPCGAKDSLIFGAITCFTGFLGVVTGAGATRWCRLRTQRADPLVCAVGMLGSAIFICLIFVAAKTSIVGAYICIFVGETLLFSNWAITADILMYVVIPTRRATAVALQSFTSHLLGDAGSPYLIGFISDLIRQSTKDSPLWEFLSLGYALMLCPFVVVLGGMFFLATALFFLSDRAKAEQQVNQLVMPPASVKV
- test_name: cell-based or functional assay
endpoint_name: pIC50, S1P transport inhibition (LC-MS/MS of S1P)

Look at this binder and give its reported pIC50, S1P transport inhibition (LC-MS/MS of S1P). 65-0810G (antibody, IgG2b, V domains shown) VH: EVHLVESGGGLVQPGRSMKLSCTASGFTFNNYYMAWVRQAPTKGLEWVASISTGGGYTYYRDSVKGRFTISRDNTGNTLYLQMDSLRSEDTATYYCARCWELPYWGQGVMVTVSS VL: QFVLTQPNSVSTNLGSTVKLSCRRSSGNIGNNYVNWYRQHEGRSPTTMIYRDDTRPDGVPNRFSGSIDRSSNSALLTINNVRPEDEAYYFCQSYSGSIYIFGGGTKLTVL
7.8 pIC50 (M)
